tested on: DU-145; experiment: NCI tumour cell line growth inhibition, 48 h
Activity calls are given as the source filed them. No stated cut-off is given here; in the data, active = GI50 up to about 1.1 µM and inactive = higher. Where a SMILES comes first, the peptide text is derived from it. Bridges are numbered along the chain shown (N, C = ends). [ ]: non-standard residue; d: D form. The star is where a group is joined. ξ: configuration not given here. X28 = O=C(/C=C/C=C/C=C/C=C/C=C/C(=O)*)NC1=C(O)CCC1=O; NMeA = CN[C@@H](C)C(=O)O; ξF = NC(Cc1ccccc1)C(=O)O; ξA = CC(N)C(=O)O
Just give me one of these, please: Yes for active, No for inactive

How did this test come out for O=c1[nH]c(N/N=C\C(O)C(O)C(O)CO)nc2ccccc12 (stereo unspecified) ?
No

How did this test come out for CC1(C)OC2C(CO)OC(n3cnc(N)nc3=O)C2O1 (stereo unspecified) ?
No

How did this test come out for COc1ccc(-c2c(C#N)c(O)n(C3OC(COC(C)=O)C(OC(C)=O)C(OC(C)=O)C3OC(C)=O)c(=S)c2C#N)cc1 (stereo unspecified) ?
No

How did this test come out for FC(F)(F)c1ccc2c(c1)nc(-c1ccc(Cl)cc1)n2CC1CCCN2CCCCC12 (stereo unspecified) ?
No

How did this test come out for OCC1OC(n2cnc3c2N=CNC[C@H]3O)C(Cl)C1O (stereo partly specified) ?
No

How did this test come out for C=CC(c1ccccc1)[C@@]1(OC(C)=O)C(=O)C(=O)OC1C1COC(C)(C)O1 (stereo partly specified) ?
No

How did this test come out for O=C1OC(C(O)C(O)C(O)CO)C(O)C1O (stereo unspecified) ?
No

How did this test come out for "O=C1C(Cl)=C(N2C(=O)CCC2=O)C(=O)c2ccccc21" ?
No

How did this test come out for "C/C(=N\NC(=S)N1CCN(c2ccccn2)CC1)c1ccccn1" ?
Yes

How did this test come out for "C/C(=N\NC(=S)N/N=C(\C)c1ccccn1)c1ccccn1" ?
No

How did this test come out for COc1cccc(C2CC(=O)c3cccn32)c1 (stereo unspecified) ?
No

How did this test come out for "Cc1nc2c(nc1C)-c1[nH]c3c(c1C(=O)C2=O)CCCC3=O" ?
No

How did this test come out for "COC(=O)/N=[N+](\[O-])C(c1ccc(Cl)cc1)c1ccc(Cl)cc1" ?
No

How did this test come out for "Cc1ccc(/C(O)=C/c2nc3ccccc3oc2=O)cc1" ?
No

How did this test come out for Cc1cc(=O)[nH]c2cc(NC(=O)C(CCCNC(=N)N)NC(=O)OCc3ccccc3)ccc12 (stereo unspecified) ?
No

How did this test come out for CC1NC(=O)[C@H](C)N(C)C(=O)[C@@H]2CCCN2C(=O)[C@@H](NC(=O)C(Cc2ccccc2)NC(=O)/C=C/C=C/C=C/C=C/C=C/C(=O)NC2=C(O)CCC2=O)COC(=O)[C@@H]2CCCN2C1=O (stereo partly specified) (X28-[ξF]SP[NMeA][ξA]P; ester 2-C) ?
No

----------
tested on: SK-MEL-28; experiment: NCI tumour cell line growth inhibition, 48 h
Active and inactive are the calls of the source. Rule as the data show it: active = GI50 up to about 1.1 µM and inactive = higher. Where a SMILES comes first, the peptide text is derived from it. The star is where a group is joined. Fmoc = O=C(OCC1c2ccccc2-c2ccccc21)*; OBn = c1ccc(CO*)cc1; tBu = CC(C)(C)*
I'd appreciate it if you could supply GI50 values for the items below.

Sample CC(OC(C)(C)C)C(NC(=O)OCC1c2ccccc2-c2ccccc21)C(=O)NC(Cc1ccccc1)C(=O)OCc1ccccc1 (stereo not given) (Fmoc-Thr(tBu)-Phe-OBn; configuration not given here) — what was its GI50?
> 100 µM (inactive)

Sample COc1cccc(C2c3cc4c(cc3OC(Nc3ccccc3)C2C)OCO4)c1OC (stereo not given) — what was its GI50?
41.3 µM (inactive)

Sample "COCOCc1cc(OCc2ccccc2)c(OC)cc1Br" — what was its GI50?
> 100 µM (inactive)

Sample COc1cc2c(cc1OCCCC(=O)Nc1cc(C(=O)Nc3cc(C(=O)NCCCN(C)C)n(C)n3)n(C)n1)N=CC1CCCN1C2=O (stereo not given) — what was its GI50?
16.7 µM (inactive)

Sample "C=CCN1C(=O)/C(=C/c2ccco2)N=C1SC/C=C/C" — what was its GI50?
46.1 µM (inactive)

----------
system: RXF 393; assay: NCI tumour cell line growth inhibition, 48 h
Active and inactive are the calls of the source. No stated cut-off is given here; in the data, active = GI50 up to about 1.1 µM and inactive = higher.
Just give me one of these, please: active, inactive

How did this test come out for CC(=O)OCC12C(OC(C)=O)C(=O)C3C(OC(C)=O)C14OC3(C)COC(=O)c1cccnc1C(C)C(C)C(=O)OC(C(OC(C)=O)C2OC(C)=O)C4(C)O (stereo not given) ?
inactive

How did this test come out for O=C1OC(C2Cc3ccccc3C2=O)c2ccccc21 (stereo not given) ?
inactive

How did this test come out for "N#Cc1c(-c2ccccc2)c(/N=N/c2ccc(F)cc2)c(=O)n2c1[nH]c1ccccc12" ?
inactive

How did this test come out for "Cc1cccc2c1C/C(=C\c1cccc(C)c1C(=O)O)C2=O" ?
inactive

How did this test come out for "CCOC(=O)CCn1cnc(N)n1" ?
inactive

How did this test come out for "COc1ccc2c(CCNC(C)=O)c(C(C)=O)[nH]c2c1" ?
inactive

How did this test come out for CC(NC(=O)C(Cc1ccc(OC(=O)c2ccccc2)cc1)NC(=O)OC(C)(C)C)C(=O)NCC(=O)NC(Cc1ccccc1)NC(=O)OCc1ccccc1 (stereo not given) ?
inactive

How did this test come out for OC(c1nc2ccccc2[nH]1)C(O)C(O)C(O)c1nc2ccccc2[nH]1 (stereo not given) ?
inactive

How did this test come out for "COc1cc(O)c2c(c1)C(=O)C=C(Cl)C2=O" ?
inactive

How did this test come out for "COc1cc2c(c(OC)c1OC)-c1ccc(SC)c(=O)cc1[C@@H](NC(=O)c1ccc([N+](=O)[O-])cc1)CC2" ?
active

How did this test come out for "N=C(N)NCCN1CC2CCC(CC2)C1" ?
inactive

How did this test come out for CCC1(CN(C)C)CC/C(=C\c2ccc(OC)c(OC)c2)C1=O (stereo not given) ?
inactive

How did this test come out for "O=C(c1ccc(/N=C/c2ccccc2O)cc1)c1ccc(/N=C/c2ccccc2O)cc1" ?
inactive

How did this test come out for CCOC(=O)C1N(S(=O)(=O)c2ccc(C)cc2)CCC12c1ccccc1N(C(C)=O)C2c1ccc(OC)c(OC)c1 (stereo not given) ?
inactive

How did this test come out for "N#CC(C#N)=c1c2nsnc2c(=C(C#N)C#N)c2nsnc12" ?
inactive

----------
I'd appreciate it if you could supply GI50 values for the items below.
system: Malme-3M; experiment: NCI tumour cell line growth inhibition, 48 h
Activity calls are given as the source filed them. No stated cut-off is given here; in the data, active = GI50 up to about 1.1 µM and inactive = higher.

Sample "COc1ccc2oc(=N)c(C(=O)NCc3ccccc3)cc2c1" — what was its GI50?
15.5 µM (inactive)

Sample O=C1OC(C2Cc3ccccc3C2=O)c2ccccc21 (stereo not drawn) — what was its GI50?
> 100 µM (inactive)

Sample "COc1c2c(cc3c1C(=O)Cc1ccc4c(c1CN(C)CC3)OCO4)OCO2" — what was its GI50?
> 100 µM (inactive)

----------
I'd appreciate it if you could supply GI50 values for the items below.
test system: DMS-114; test: NCI tumour cell line growth inhibition, 48 h
The source made the active and inactive calls. No stated cut-off is given here; in the data, active = GI50 up to about 1.1 µM and inactive = higher.

Sample C=CC1=CC(C)C[C@]1(O)C(=O)OC (some centres undefined) — what was its GI50?
< 0.01 µM (active)

Sample "O=c1c2cc(Br)cc(Br)c2[nH]c(=S)n1-c1ccccc1" — what was its GI50?
56.2 µM (inactive)

Sample "CCOC(=O)NC(=O)c1cn(CCCO)c(=O)[nH]c1=O" — what was its GI50?
> 100 µM (inactive)

Sample O=C1OC2(OC2c2ccc(Cl)cc2)c2ccccc21 (centres undefined) — what was its GI50?
64.7 µM (inactive)

Sample "Oc1cccnc1/C=N/OCc1ccccc1" — what was its GI50?
> 100 µM (inactive)

Sample "COc1ccc(C(=O)O)c2c(=O)c3cccnc3[nH]c12" — what was its GI50?
> 100 µM (inactive)

Sample "O=c1[nH]c2c(c3ccccc13)CCc1ccccc1-2" — what was its GI50?
> 100 µM (inactive)

Sample COc1ccc(C(=O)C(C(=O)CCC(=O)Nc2ccc(Cl)c(Cl)c2)c2ccc(OC)cc2)cc1 (centres undefined) — what was its GI50?
> 100 µM (inactive)

Sample "COC(=O)NC(=O)c1cn(CCCOC(=O)CCCCCCCCC(=O)OCCCn2cc(C(=O)NC(=O)OC)c(=O)[nH]c2=O)c(=O)[nH]c1=O" — what was its GI50?
> 100 µM (inactive)

----------
test system: RPMI-8226; experiment: NCI tumour cell line growth inhibition, 48 h
The source made the active and inactive calls. No stated cut-off is given here; in the data, active = GI50 up to about 1.1 µM and inactive = higher.
Just give me one of these, please: yes = active, no = inactive

How did this test come out for "C/C(=N\NC(=S)N/N=C(\C)c1ccccn1)c1ccccn1" ?
no

How did this test come out for "Nc1nc2ccc(Sc3ccc4nc(N)[nH]c(=O)c4c3)cc2c(=O)[nH]1" ?
no

How did this test come out for Cc1ccc(C2NC(=O)c3ccccc3N2)c(C)c1 (configuration not stated) ?
yes

How did this test come out for COC(=O)C1SC[C@H]2C(=O)N(c3ccccc3)C(=O)N12 (some centres not stated) ?
no

How did this test come out for CCC1(CN(C)C)CC/C(=C\c2ccc(OC)c(OC)c2)C1=O (configuration not stated) ?
no

How did this test come out for "COCc1nc2c(OC)c(-c3nc4ccc(N5CCN(C)CC5)nc4[nH]3)cc(OC)c2n1C" ?
no

How did this test come out for "CCN(CC)c1ccc(/N=C2/C=CC(=O)c3ncccc32)c(C)c1" ?
no

Taken from ChEMBL document CHEMBL1201862.
